Values compiled from IntAct's records for PubMed 21460798.

B1: Probable serine/threonine-protein kinase HSL1 (Saccharomyces cerevisiae), P34244 (parent)
chain: MTGHVSKTSHVPKGRPSSLAKKAAKRAMAKVNSNPKRASGHLERVVQSVNDATKRLSQPDSTVSVATKSSKRKSRDTVGPWKLGKTLGKGSSGRVRLAKNMETGQLAAIKIVPKKKAFVHCSNNGTVPNSYSSSMVTSNVSSPSIASREHSNHSQTNPYGIEREIVIMKLISHTNVMALFEVWENKSELYLVLEYVDGGELFDYLVSKGKLPEREAIHYFKQIVEGVSYCHSFNICHRDLKPENLLLDKKNRRIKIADFGMAALELPNKLLKTSCGSPHYASPEIVMGRPYHGGPSDVWSCGIVLFALLTGHLPFNDDNIKKLLLKVQSGKYQMPSNLSSEARDLISKILVIDPEKRITTQEILKHPLIKKYDDLPVNKVLRKMRKDNMARGKSNSDLHLLNNVSPSIVTLHSKGEIDESILRSLQILWHGVSRELITAKLLQKPMSEEKLFYSLLLQYKQRHSISLSSSSENKKSATESSVNEPRIEYASKTANNTGLRSENNDVKTLHSLEIHSEDTSTVNQNNAITGVNTEINAPVLAQKSQFSINTLSQPESDKAEAEAVTLPPAIPIFNASSSRIFRNSYTSISSRSRRSLRLSNSRLSLSASTSRETVHDNEMPLPQLPKSPSRYSLSRRAIHASPSTKSIHKSLSRKNIAATVAARRTLQNSASKRSLYSLQSISKRSLNLNDLLVFDDPLPSKKPASENVNKSEPHSLESDSDFEILCDQILFGNALDRILEEEEDNEKERDTQRQRQNDTKSSADTFTISGVSTNKENEGPEYPTKIEKNQFNMSYKPSENMSGLSSFPIFEKENTLSSSYLEEQKPKRAALSDITNSFNKMNKQEGMRIEKKIQREQLQKKNDRPSPLKPIQHQELRVNSLPNDQGKPSLSLDPRRNISQPVNSKVESLLQGLKFKKEPASHWTHERGSLFMSEHVEDEKPVKASDVSIESSYVPLTTVATSSRDPSVLAESSTIQKPMLSLPSSFLNTSMTFKNLSQILADDGDDKHLSVPQNQSRSVAMSHPLRKQSAKISLTPRSNLNANLSVKRNQGSPGSYLSNDLDGISDMTFAMEIPTNTFTAQAIQLMNNDTDNNKINTSPKASSFTKEKVIKSAAYISKEKEPDNSDTNYIPDYTIPNTYDEKAINIFEDAPSDEGSLNTSSSESDSRASVHRKAVSIDTMATTNVLTPATNVRVSLYWNNNSSGIPRETTEEILSKLRLSPENPSNTHMQKRFSSTRGSRDSNALGISQSLQSMFKDLEEDQDGHTSQADILESSMSYSKRRPSEESVNPKQRVTMLFDEEEEESKKVGGGKIKEEHTKLDNKISEESSQLVLPVVEKKENANNTENNYSKIPKPSTIKVTKDTAMESNTQTHTKKPILKSVQNVEVEEAPSSDKKNWFVKLFQNFSSHNNATKASKNHVTNISFDDAHMLTLNEFNKNSIDYQLKNLDHKFGRKVVEYDCKFVKGNFKFKIKITSTPNASTVITVKKRSKHSNTSSNKAFEKFNDDVERVIRNAGRS
partner: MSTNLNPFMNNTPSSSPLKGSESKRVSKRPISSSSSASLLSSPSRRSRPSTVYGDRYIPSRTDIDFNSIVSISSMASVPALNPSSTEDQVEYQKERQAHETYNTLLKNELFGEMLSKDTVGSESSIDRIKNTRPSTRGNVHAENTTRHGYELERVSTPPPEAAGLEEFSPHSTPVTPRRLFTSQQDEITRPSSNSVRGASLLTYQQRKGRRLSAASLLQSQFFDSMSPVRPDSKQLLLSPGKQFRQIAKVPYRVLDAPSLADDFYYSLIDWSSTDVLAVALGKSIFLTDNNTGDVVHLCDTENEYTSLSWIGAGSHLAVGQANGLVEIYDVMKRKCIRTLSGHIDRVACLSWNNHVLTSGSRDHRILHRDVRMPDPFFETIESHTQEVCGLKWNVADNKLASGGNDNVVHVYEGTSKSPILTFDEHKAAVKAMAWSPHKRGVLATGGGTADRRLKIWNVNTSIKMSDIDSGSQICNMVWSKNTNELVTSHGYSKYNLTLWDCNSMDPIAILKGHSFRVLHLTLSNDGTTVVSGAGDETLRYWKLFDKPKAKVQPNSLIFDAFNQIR

Variants of: B1
run_conditions: with cdh1_yeast CDH1, P53197
assay_endpoint: effect of a mutation on the interaction

mutation_string	value_reported
E781A	disrupting interaction
E776A	disrupting interaction
N777A	disrupting interaction
K775A	disrupting interaction
